Data credit: PubChem BioAssay (NCI)

Tested on: NCI-H522 lung
Protocol: NCI tumour cell line growth inhibition, 48 h
Values of TGI greater than or equal to 30 µM map to Satisfied; values below map to Not satisfied.

O=C1c2ccccc2C(=O)c2c(NCCNC(=O)C3CCCN3)ccc(NCCNC(=O)C3CCCN3)c21 (stereo unspecified) = Satisfied
CN(C)CCCSc1c2ccccc2nc2cc(NCC(=O)Nc3ccccc3-c3ccccc3NC(=O)CNc3ccc4c(SCCCN(C)C)c5ccccc5nc4c3)ccc12 = Satisfied
O=C(/C=C/c1c(O)ccc2ccccc12)c1cccc2ccccc12 = Satisfied
CC(F)(F)c1cc(F)ccc1-c1sc2cc(O)ccc2c1Oc1ccc(/C=C/C(=O)O)cc1 = Not satisfied
CC1=CC2(O)OC3(CC2=C(C)C)C(C)CCC13 (stereo unspecified) = Satisfied

Reported TGI at or above 30 µM? OCCSCc1cc2c(O)c(c1)Cc1cc(CSCCO)cc(c1O)Cc1cc(CSCCO)cc(c1O)Cc1cc(CSCCO)cc(c1O)C2 Not satisfied

Reported TGI at or above 30 µM? O=[N+]([O-])c1cc(Cl)cc2c1nc(NCCO)c1ccccc12 Satisfied

----------
Below, each entry is listed alongside its reported TGI.
System: HS 578T breast
Protocol: NCI tumour cell line growth inhibition, 48 h
Give the quantity in µM, number only.

CCn1c(-c2nonc2N)nc2c(C#CC(C)(C)O)nc(O[C@@H](CN)c3ccccc3)cc21 = 1.09
COc1ccc(NC(=O)Nc2ccc(Nc3nc(C)cc(Nc4ccc(C)cc4)n3)cc2)cc1 = 5.4
OCCSCc1cc2c(O)c(c1)Cc1cc(CSCCO)cc(c1O)Cc1cc(CSCCO)cc(c1O)Cc1cc(CSCCO)cc(c1O)C2 = 42.8

Let's switch to this compound now.
Output TGI of Cc1c2ncccc2nc2[nH]c3ccc(OCCN(C)C)cc3c12 33.7

----------
Below, each entry is listed alongside its reported TGI.
Tested on: HOP-62 NSCLC
Protocol: NCI tumour cell line growth inhibition, 48 h

Solved cases (2 shown):
O=C1Nc2ccccc2[C@]12C[C@H]2c1ccccn1 = > 100 µM
OCC(O)COc1c(Cl)ccc(Cl)c1Cl (stereo unspecified) = > 100 µM

Let's switch to this compound now.
Output TGI of CC(=O)NCCCCCCNC(C)=O > 10000 µM

----------
Below, each entry is listed alongside its reported GI50.
Tested on: RPMI-8226 leukemia
Protocol: NCI tumour cell line growth inhibition, 48 h

Solved cases (4 shown):
CCN(Cc1nc2cc(C(F)(F)F)ccc2nc1-c1ccccc1)c1ccc(OC)c(OC)c1 = 2510 nM
O=C(CC1(O)C(=O)Nc2ccc(Br)cc21)c1ccc(C(=O)NCC2CCC3(CC2)OOC2(CCCCC2)OO3)cc1 (stereo not given) = 1650 nM
CCCCCCNC(=O)Oc1ccc(/C(=C(\C)c2ccccc2)c2ccc(OCCN3CCCCC3)cc2)cc1 = 2380 nM
CCCCCC(=O)OCC(=O)O[C@@H]1C[C@]2(C(C)C)O[C@@]1(C)[C@@H]1CC[C@@H](C)[C@H]1[C@@H]2OC(=O)/C=C/c1ccccc1 = 43300 nM

Let's switch to this compound now.
Output GI50 of Oc1ccc(Br)cc1/C=N/NC(=S)NC12CC3CC(CC(C3)C1)C2 2070 nM

----------
Test system: SF-268 CNS
Protocol: NCI tumour cell line growth inhibition, 48 h
Below, each entry is listed alongside its reported TGI.

Solved cases (2 shown):
CC(=O)OCC(OC(C)=O)C(OC(C)=O)C(OC(C)=O)C(=O)CNn1c(-c2ccccc2)nc2ccc(Br)cc2c1=O (configuration not stated) = > 100 µM
COc1ccc(C2SC(N)=Nc3c2c(C)nn3C(=O)c2ccc(Cl)cc2)cc1 (configuration not stated) = > 10 µM

Output TGI of CC1(C)OC(=O)C(C)(C)OC1=O > 100 µM

Output TGI of COc1cc(-c2nn(C(=O)NS(=O)(=O)c3ccc(C)cc3)cc2-c2ccncc2)ccc1Cl > 100 µM

Output TGI of COc1ccc2[nH]c(-c3cccc(N(C)C)c3)cc(=O)c2c1 33.7 µM

Output TGI of CCOC(=O)N1C/C(=C/c2ccc(OC)cc2)C(=O)/C(=C/c2ccc(OC)cc2)C1 > 45.1 µM
